This collection of values is drawn from the Deep4Chem optical property database.

- method.notes: solvent given as SMILES
- particulars: in CS(C)=O
Values of fluorescence lifetime greater than or equal to 1 ns map to true (1); values below map to false (0).

Field: example entries. Status: answers known.
CCCCCCCCCCCCOc1cc2cc(N(C)C)ccc2cc1C=C(C#N)C#N: true (1)
[O-]c1c(-c2nc3ccccc3s2)cc2ccc3cccc4ccc1c2c34: true (1)
Cc1ccc(C2CC(c3ccc(O)cc3)=NN2c2ccc(S(N)(=O)=O)cc2)cc1 (centres undefined): true (1)
COc1ccc(-c2nc3ccccc3nc2/C=C/N2CCCC2)s1: true (1)
C#CCn1c2ccccc2c2cc(/C=C/c3c(Cl)c(C)c4n3[B-](F)(F)[N+]3=C(C)C(Cl)=C(C)C3=C4c3ccc(I)cc3)ccc21: true (1)

Field: next compound
Reported fluorescence lifetime at or above 1 ns? CCN(CC)c1ccc(C=Cc2nc3nc4ccccc4nc3s2)cc1
false (0)

----------
- method.notes: solvent given as SMILES
- particulars: in ClCCl
Threshold 4 ns. fluorescence lifetime below it: T. fluorescence lifetime at it or above: F.

Reference set (5 entries):
COC(=O)c1cc(=O)n(C)c2cc(-c3ccccc3OC)sc12: T
O=c1c2cccc3cccc(c32)c2nc3ccccc3n12: F
CC(C)(C)c1ccc2c(c1)c1cc(C(C)(C)C)ccc1n2-c1ccc(C#Cc2ccc(C=C(C#N)C#N)cc2)cc1: F
N#CC1=c2c3cccc4cccc(c43)n2[B-](F)(F)[n+]2ccccc21: F
CC(C)[Si](C#Cc1ccc(C#C[Si](C(C)C)(C(C)C)C(C)C)c2nc3cc4c(cc3nc12)[C@H]1c2ccccc2[C@@H]4c2ccccc21)(C(C)C)C(C)C: T

In the record for COC(=O)c1cc(=O)n(C)c2cc(-c3cc4c5c(c3)CCCN5CCC4)sc12 , is fluorescence lifetime less than 4 ns?
T

Could you do the same for CC(=O)c1ccc(-c2cc(C)[o+]c(C)c2)cc1 , please?
T

Likewise for Cn1ccc(-c2nc3ccccc3nc2/C=C/N2CCCC2)c1 ?
F

Also check COc1ccc(/C=C/C2=[O+][B-](F)(F)OC(/C=C/c3ccc(OC)c4ccccc34)=C2c2ccccc2)c2ccccc12
T

Entry to check: COc1ccc2c3c(OC)c4ccccc4c(OC)c3n(C)c2c1
F

// same read-out, input: N#Cc1ccc(/C2=C3N=C(C(c4ccccc4)=C/3c3ccccc3)/C(c3ccc(C#N)cc3)=c3\[nH]/c(c(-c4ccccc4)c3-c3ccccc3)=C(/c3ccc(C#N)cc3)C3=N/C(=C(/c4ccc(C#N)cc4)c4[nH]c2c(-c2ccccc2)c4-c2ccccc2)C(c2ccccc2)=C3c2ccccc2)cc1
T

Then this molecule: CC1=C(I)C(C)=[N+]2C1=C(c1c(-c3ccccn3)nc3ccccn13)c1c(C)cc(C)n1[B-]2(F)F
T

----------
- method.notes: solvent given as SMILES
- particulars: in ClC(Cl)Cl
Below is a list of entries, each paired with its recorded log10(fluorescence lifetime) value.
Hello, just confirming the data are log10 of fluorescence lifetime with units of ns.

The examples below pair each entry with its known result.
Cc1ccc(C2=Cc3c4ccccc4c4ccccc4[n+]3[B-](F)(F)O2)cc1: -0.15
c1ccc(-c2cc(-c3ccc(-c4nc(-c5ccccn5)c(-c5ccccn5)[nH]4)cc3)cc(-c3ccccn3)n2)nc1: 0.08
CC[n+]1c(C=C2C(=O)C(C=C3N(C)c4ccccc4C3(C)C)=C2[O-])[se]c2ccccc21: 0.39
COc1cc(OC)c2cc(-c3cccc(-c4cc5c(OC)cc(OC)cc5oc4=O)c3)c(=O)oc2c1: 0.41
O=Cc1ccc(C#CC(C#Cc2ccc(C=O)s2)=Cc2ccc(C=C(C#Cc3ccc(C=O)s3)C#Cc3ccc(C=O)s3)cc2)s1: -0.10
CC1(C)CC(NCc2ccc3ccc4cccc5ccc2c3c45)CC(C)(C)N1: 1.56
CC(C)(C)n1c(=O)c2cc3ccc4cccc5ccc(c2c1=O)c3c45: 0.61
C(#Cc1ccc(-n2c3ccccc3c3ccccc32)cc1)c1ccccc1: 0.20

Which measured log10(fluorescence lifetime) value corresponds to COc1ccc(/C=C/C2=CC(/C=C/c3ccc(OC)cc3)=[O+][B-](OC(C)=O)(OC(C)=O)O2)cc1 ?
0.40
